B1: TMEM192 (parent)
chain: ILGKVILWILHLLLECYIQYHHSK

# Variants of: B1
# Assay Method Text: protein stability index of a GFP-peptide fusion (GPS, HEK-293T) (PSI 1-6); higher = more stable;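 further: lentivirally expressed fusions sorted by FACS into six bins by GFP to DsRed ratio, PSI derived from sequencing read proportions per bin multiplied by bin number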
# Recorded Conditions: c terminus: a fixed tail appended
Returns one of yes or no; yes when protein stability index is >= 3.

- Primary Sequence: "ILGKEILWILHLLLECYIQYHHSK [V5E]"
  Assigned Label: "yes"
- Primary Sequence: "ILGKVILWILHLLLECYIQAHHSK [Y20A]"
  Assigned Label: "no"
- Primary Sequence: "ILGKVILWILHLLLECSIQYHHSK [Y17S]"
  Assigned Label: "yes"
- Primary Sequence: "ILGKVILDILHLLLECYIQYHHSK [W8D]"
  Assigned Label: "no"
- Primary Sequence: "ILGKVILWILHLLLECYIDYHHSK [Q19D]"
  Assigned Label: "yes"
- Primary Sequence: "ILGKVLLWILHLLLECYIQYHHSK [I6L]"
  Assigned Label: "yes"
- Primary Sequence: "ILGKVILWILHLLLECYWQYHHSK [I18W]"
  Assigned Label: "yes"
- Primary Sequence: "ILGKVILWILHLLLECYIFYHHSK [Q19F]"
  Assigned Label: "no"
- Primary Sequence: "ILGKVIHWILHLLLECYIQYHHSK [L7H]"
  Assigned Label: "no"
- Primary Sequence: "ILEKVILWILHLLLECYIQYHHSK [G3E]"
  Assigned Label: "no"

Could you tell me if the measured protein stability index of ILGKVIRWILHLLLECYIQYHHSK [L7R] reaches 3 or more?
no

Decide: protein stability index of ILGKVILWILHLLLECYIQYDHSK [H21D] >= 3?
yes

Reported protein stability index reaches at least 3 for ILGKVILWILHLLLNCYIQYHHSK [E15N] ?
yes

# bool: protein stability index of ILGKVDLWILHLLLECYIQYHHSK [I6D] >= 3
yes

Please indicate if the recorded protein stability index for ILGYVILWILHLLLECYIQYHHSK [K4Y] meets or exceeds 3.
no

Determine whether this variant has protein stability index no lower than 3: ILGKVILWILHLLLECCIQYHHSK [Y17C]
no

// provenance: the supplement of paper PMC10567573
